- target: WIZ (Homo sapiens, UniProt O95785+Q96SW2)
- Construct: HUDEP-2 cells engineered to express a HiBiT tag in either the WIZ (Widely interspaced zinc finger) or ZBTB7A
- Sequence (O95785 whole entry, one chain of several): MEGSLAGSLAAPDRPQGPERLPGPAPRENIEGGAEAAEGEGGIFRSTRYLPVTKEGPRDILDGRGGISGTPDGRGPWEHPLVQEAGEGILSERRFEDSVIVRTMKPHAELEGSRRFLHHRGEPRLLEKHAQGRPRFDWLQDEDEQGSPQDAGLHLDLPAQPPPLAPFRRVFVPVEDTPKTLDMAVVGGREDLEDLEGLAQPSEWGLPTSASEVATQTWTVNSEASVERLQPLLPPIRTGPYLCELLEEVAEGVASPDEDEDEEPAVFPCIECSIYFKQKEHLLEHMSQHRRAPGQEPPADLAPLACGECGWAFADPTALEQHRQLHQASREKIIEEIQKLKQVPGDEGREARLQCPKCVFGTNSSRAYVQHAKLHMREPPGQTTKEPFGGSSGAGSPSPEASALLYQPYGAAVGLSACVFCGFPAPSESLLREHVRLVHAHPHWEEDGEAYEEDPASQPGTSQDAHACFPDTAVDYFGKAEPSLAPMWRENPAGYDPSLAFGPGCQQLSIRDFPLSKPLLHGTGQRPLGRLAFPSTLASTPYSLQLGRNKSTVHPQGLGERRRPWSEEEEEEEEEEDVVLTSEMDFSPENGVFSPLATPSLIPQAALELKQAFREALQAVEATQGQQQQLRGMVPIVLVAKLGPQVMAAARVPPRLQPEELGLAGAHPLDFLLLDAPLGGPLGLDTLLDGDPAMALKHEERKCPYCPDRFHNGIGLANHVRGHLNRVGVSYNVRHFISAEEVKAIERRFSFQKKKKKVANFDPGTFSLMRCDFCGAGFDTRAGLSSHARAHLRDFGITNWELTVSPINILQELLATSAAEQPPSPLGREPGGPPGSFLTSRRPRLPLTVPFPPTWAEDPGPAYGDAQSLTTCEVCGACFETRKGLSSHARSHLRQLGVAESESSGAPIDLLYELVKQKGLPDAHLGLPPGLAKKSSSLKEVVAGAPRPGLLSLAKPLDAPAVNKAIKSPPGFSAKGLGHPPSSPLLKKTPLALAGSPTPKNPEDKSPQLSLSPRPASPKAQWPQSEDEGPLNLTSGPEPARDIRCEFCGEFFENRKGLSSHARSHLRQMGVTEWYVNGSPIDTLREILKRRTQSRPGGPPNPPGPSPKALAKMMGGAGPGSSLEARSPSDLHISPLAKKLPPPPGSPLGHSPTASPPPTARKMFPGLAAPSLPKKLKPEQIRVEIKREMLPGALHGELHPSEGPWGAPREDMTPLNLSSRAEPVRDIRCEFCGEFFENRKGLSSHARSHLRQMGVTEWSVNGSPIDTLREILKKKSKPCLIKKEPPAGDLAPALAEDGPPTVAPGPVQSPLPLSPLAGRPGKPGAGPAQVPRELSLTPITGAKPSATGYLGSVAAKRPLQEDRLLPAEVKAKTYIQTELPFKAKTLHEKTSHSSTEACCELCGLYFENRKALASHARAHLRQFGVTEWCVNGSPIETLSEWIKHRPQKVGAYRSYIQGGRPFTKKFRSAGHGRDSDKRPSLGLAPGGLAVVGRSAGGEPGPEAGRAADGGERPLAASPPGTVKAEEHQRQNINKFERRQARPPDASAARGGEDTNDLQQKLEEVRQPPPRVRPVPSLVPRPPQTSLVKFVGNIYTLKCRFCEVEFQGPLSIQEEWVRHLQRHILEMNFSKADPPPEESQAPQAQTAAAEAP
- experimental_protocol: HUDEP-2 WIZ HiBiT degradation assay
- Assay type: cell-based
- assay_context: HiBiT-tagged WIZ degradation in HUDEP-2 cells, 24 hours of treatment; read-out: WIZ EC50
- Experimental: WIZ Assay and ZBTB7A EC50 Assays. The HiBiT degradation assays for WIZ and ZBTB7A in HUDEP-2 cells were performed as described below. […] Prior to start of the assay, cell count and viability were measured by trypan blue exclusion using the Vi-cell XR cell viability analyzer. […]
Would you kindly list DC50 for each of these compounds?
Answers are plain numbers, in nM.

> print(dat)
                                   compound  quantity.measured  reading.unit  meas.value
1  CNc1cc(-c2cc3c(cc2Nc2cccc4c2C(=O)N(C2CCC(=O)NC2=O)C4=O)N(C)C(=O)CO3)ccn1 (stereo not drawn) [Compound 14]               DC50            nM          12
2  Cc1cc(-c2cc3c(cc2Nc2cccc4c2C(=O)N([C@H]2CCC(=O)NC2=O)C4=O)N(C)C(=O)CO3)c(F)cn1 [Compound 61]               DC50            nM           7
3  Cc1cc(-c2cc3c(cc2Nc2cccc4c2C(=O)N([C@H]2CCC(=O)NC2=O)C4=O)N(C)C(=O)[C@H](C)O3)cc(C)n1 [Compound 23]               DC50            nM          11
4  Cc1cc(-c2cc3c(cc2Nc2cccc4c2C(=O)N([C@H]2CCC(=O)NC2=O)C4=O)N(C)C(=O)[C@@H](C)O3)cc(C)n1 [Compound 24]               DC50            nM          14

Hi there! I need DC50 for each item below, if you can.
1. Cc1cc(-c2c(Nc3cccc4c3C(=O)N(C3CCC(=O)NC3=O)C4=O)cc3c(c2F)OCC(=O)N3C)ccn1 (stereo not drawn) [Compound 80]
2. COc1ccc(-c2cc3c(cc2Nc2cccc4c2C(=O)N([C@H]2CCC(=O)NC2=O)C4=O)N(C)C(=O)CO3)cn1 [Compound 38]

1: 29; 2: 14

* * *

- target: ZBTB7A (Homo sapiens, UniProt O95365+Q96SW2)
- Construct: HUDEP-2 cells engineered to express a HiBiT tag in either the WIZ (Widely interspaced zinc finger) or ZBTB7A
- Sequence (O95365 whole entry): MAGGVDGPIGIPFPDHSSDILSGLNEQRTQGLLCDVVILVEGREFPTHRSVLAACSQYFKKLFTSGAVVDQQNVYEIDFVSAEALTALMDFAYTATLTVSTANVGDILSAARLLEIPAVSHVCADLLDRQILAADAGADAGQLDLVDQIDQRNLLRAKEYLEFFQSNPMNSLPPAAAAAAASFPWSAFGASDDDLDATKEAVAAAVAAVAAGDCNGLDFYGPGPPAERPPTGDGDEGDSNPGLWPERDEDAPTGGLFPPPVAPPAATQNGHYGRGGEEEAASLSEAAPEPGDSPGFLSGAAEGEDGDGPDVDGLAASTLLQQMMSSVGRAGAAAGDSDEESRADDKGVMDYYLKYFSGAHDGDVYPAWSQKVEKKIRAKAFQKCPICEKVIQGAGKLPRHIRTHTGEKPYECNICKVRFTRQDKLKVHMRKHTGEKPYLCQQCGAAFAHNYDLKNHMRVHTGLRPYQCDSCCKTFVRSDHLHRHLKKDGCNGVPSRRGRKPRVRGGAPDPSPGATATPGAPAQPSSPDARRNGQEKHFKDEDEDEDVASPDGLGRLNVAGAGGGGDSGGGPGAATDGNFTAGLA
- Sequence (Q96SW2 whole entry): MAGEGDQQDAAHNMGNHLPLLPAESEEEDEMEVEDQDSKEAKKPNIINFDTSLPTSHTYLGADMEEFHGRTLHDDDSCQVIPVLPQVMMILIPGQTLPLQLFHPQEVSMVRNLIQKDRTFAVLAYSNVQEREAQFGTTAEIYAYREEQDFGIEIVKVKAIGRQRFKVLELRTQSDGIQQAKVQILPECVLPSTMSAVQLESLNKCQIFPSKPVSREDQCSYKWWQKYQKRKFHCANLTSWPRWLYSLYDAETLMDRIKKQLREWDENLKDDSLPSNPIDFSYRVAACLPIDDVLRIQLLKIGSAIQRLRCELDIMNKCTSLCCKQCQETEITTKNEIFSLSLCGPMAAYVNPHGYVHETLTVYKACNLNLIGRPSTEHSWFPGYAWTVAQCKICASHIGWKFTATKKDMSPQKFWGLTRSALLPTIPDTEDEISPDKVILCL
- Sequence (Q16531 whole entry partner): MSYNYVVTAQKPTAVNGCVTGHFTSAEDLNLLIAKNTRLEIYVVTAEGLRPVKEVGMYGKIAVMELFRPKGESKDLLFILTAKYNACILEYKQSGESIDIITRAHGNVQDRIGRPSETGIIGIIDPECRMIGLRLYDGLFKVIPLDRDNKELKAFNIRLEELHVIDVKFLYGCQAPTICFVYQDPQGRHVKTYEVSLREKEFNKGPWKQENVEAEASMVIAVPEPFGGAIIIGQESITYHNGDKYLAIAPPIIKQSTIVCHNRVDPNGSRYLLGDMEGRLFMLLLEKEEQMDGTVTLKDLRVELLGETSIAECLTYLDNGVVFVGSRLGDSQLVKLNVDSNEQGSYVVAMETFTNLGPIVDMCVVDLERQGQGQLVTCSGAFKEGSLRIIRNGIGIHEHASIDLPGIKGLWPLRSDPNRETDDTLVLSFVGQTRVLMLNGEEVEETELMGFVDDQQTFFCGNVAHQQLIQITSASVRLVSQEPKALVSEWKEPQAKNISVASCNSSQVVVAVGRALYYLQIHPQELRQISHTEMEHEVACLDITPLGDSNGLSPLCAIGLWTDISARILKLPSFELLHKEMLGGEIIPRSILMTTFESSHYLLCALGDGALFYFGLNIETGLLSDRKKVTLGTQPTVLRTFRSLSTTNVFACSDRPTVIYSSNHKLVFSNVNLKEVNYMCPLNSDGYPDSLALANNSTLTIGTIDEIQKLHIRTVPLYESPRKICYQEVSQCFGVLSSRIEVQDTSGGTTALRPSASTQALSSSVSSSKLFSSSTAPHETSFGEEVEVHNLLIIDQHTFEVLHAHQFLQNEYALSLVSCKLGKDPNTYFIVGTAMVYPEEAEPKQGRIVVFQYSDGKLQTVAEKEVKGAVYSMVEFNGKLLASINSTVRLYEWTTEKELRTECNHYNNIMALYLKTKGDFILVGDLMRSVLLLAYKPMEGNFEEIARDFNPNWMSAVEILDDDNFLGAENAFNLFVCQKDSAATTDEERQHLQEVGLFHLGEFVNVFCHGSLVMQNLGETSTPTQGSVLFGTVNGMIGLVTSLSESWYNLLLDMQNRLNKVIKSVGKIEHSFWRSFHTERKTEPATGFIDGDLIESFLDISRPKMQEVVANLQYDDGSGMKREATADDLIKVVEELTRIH
- experimental_protocol: HUDEP-2 ZBTB7A HiBiT degradation assay
- Type: cell-based
- assay_context: HiBiT-tagged ZBTB7A degradation in HUDEP-2 cells, 24 hours of treatment; read-out: ZBTB7A EC50
quantity_measured: log10 DC50 (log10 of the value in nM)
In our notation, the value equals log10 of DC50 in nM.

> print(dat)
                                   molecule  meas.value
1  COc1cc(-c2cc3c(cc2Nc2cccc4c2C(=O)N([C@H]2CCC(=O)NC2=O)C4=O)N(C)C(=O)CO3)ccn1 [Compound 17]        1.26
2  Cc1cc(-c2cc3c(cc2Nc2cccc4c2C(=O)N([C@@H]2CCC(=O)NC2=O)C4=O)N(C)C(=O)CO3)c(F)cn1 [Compound 58]        1.00
3  Cc1cc(-c2c(Nc3cccc4c3C(=O)N([C@H]3CCC(=O)NC3=O)C4=O)cc3c(c2F)C(C)OC(=O)N3C)ccn1 (stereo partly shown) [Compound 79]        1.45
4  COc1nccc(-c2cc3oc(=O)n(C)c3cc2Nc2cccc3c2C(=O)N(C2CCC(=O)NC2=O)C3=O)c1F (stereo not shown) [Compound 65]        1.98

Please state, for each entry, its recorded log10 DC50.
1. COc1cc(-c2c(Nc3cccc4c3C(=O)N([C@H]3CCC(=O)NC3=O)C4=O)cc3c(c2F)OCC(=O)N3C)c(F)cn1 [Compound 76]
2. CCO[C@H]1CC[C@H](c2cc3c(cc2Nc2cccc4c2C(=O)N([C@H]2CCC(=O)NC2=O)C4=O)N(C)C(=O)[C@H](C)O3)CC1 [Compound 46]
3. Cc1cc(-c2cc3c(cc2Nc2cccc4c2C(=O)N([C@@H]2CCC(=O)NC2=O)C4=O)N(C)C(=O)CO3)ccn1 [Compound 59]

1. 1.81
2. 0.85
3. 1.00
